Where do the numbers come from? From paper PMC10397247.

Biological target: T1, 4H797-bH
T1 chain: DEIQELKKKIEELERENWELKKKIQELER
Test: two-hybrid library CCNG1;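 note: natural log of median RNA to DNA barcode read ratio; higher means stronger binding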
READOUT LABEL: interaction score
The answer should be written as a number, with no unit following it.

These solved cases illustrate the format of a correct answer.
DEIQELKKEIEELERKNWELEKKNQELKR [4H568-bH] :: -0.219
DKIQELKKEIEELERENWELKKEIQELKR [4H2586-bH] :: 0.65
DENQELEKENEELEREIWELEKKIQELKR [4H1158-bH] :: 0.508

From here, focus on the item given below.
Dear colleague, I am looking for the recorded interaction score of the following binder: DKNQELKKKNEELERKIWELEKEIQELER [4H4001-bH] -0.61
